Target or system Solute carrier family 22 member 1 (Homo sapiens, UniProt O15245): recorded IC50 listed per item.
Write the number in µM without appending the unit.

The following compounds have reported results that may help.
[
  {
    "MOLECULAR_STRING": "CCCC[N+](CCCC)(CCCC)CCCC",
    "TGT": "Solute carrier family 22 member 1 (Homo sapiens, UniProt O15245)",
    "DATA_VALUE": 52
  },
  {
    "MOLECULAR_STRING": "CCC[N+](CCC)(CCC)CCC",
    "TGT": "Solute carrier family 22 member 1 (Homo sapiens, UniProt O15245)",
    "DATA_VALUE": 90
  }
]

We now examine a further compound.
Specify IC50 for "CCCCCC[N+](CCCCCC)(CCCCCC)CCCCCC" , system Solute carrier family 22 member 1 (Homo sapiens, UniProt O15245). 3
